Origin of the recorded values: PubChem BioAssay AID504532

system: Type-1 angiotensin II receptor (Homo sapiens) (UniProt P30556)
Sequence (P30556 whole entry, looked up): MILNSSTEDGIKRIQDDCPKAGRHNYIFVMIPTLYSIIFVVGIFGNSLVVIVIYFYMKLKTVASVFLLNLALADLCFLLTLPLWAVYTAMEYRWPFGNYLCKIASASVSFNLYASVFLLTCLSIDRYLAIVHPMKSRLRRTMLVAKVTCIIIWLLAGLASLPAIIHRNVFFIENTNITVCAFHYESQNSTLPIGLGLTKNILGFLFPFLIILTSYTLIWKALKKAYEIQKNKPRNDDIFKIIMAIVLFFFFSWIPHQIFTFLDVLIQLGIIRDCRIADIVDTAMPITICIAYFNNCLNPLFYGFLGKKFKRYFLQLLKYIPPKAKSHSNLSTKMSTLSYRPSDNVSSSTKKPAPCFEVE
protocol.text: AGTR1 beta-arrestin recruitment agonism – cell-based, CHO-K1 AGTR1, luminescence, set 5, selectivity assay for APJ receptor agonist project, SAR follow-up (AID 504532)
cond: CHO-K1 AGTR1 beta-arrestin PathHunter, 90 min
The source made the active and inactive calls.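 How the source made its calls: active means mean EC50 below 10 µM; inactive means the rest.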
property.measured: EC50

• COc1cccc(S(=O)(=O)O/N=C2\C=C(C(C)C)C(=O)C=C2C)c1 = > 79 µM (inactive)
• CC1=CC(=O)C(C2CCCCC2)=C/C1=N\OS(=O)(=O)c1ccccc1Cl = > 79 µM (inactive)
• N#Cc1ccc(S(=O)(=O)ON=C2C=CC(=O)C(c3ccccc3)=C2)cc1 = > 79 µM (inactive)
• CC1=CC(=O)C(C2CCCCC2)=C/C1=N/OS(=O)(=O)c1cccc(Br)c1 = > 79 µM (inactive)
• CC1=CC(=O)C(C2CCCCC2)=C/C1=N/OS(=O)(=O)c1cccc(C#N)c1 = > 79 µM (inactive)
• Cc1cc(N=O)c(C(C)C)cc1O = > 79 µM (inactive)
• Cc1cc(O)c(C(C)(C)C)cc1N=O = > 79 µM (inactive)
• CC1=CC(=O)C(C(C)(C)C)=C/C1=N\OS(=O)(=O)c1c(Cl)cccc1Cl = > 79 µM (inactive)
• CC1=CC(=O)C(C(C)(C)C)=C/C1=N\OS(=O)(=O)c1cn(C)cn1 = > 79 µM (inactive)
• O=C1C=CC(=NOS(=O)(=O)c2ccccc2)C=C1c1ccccc1 = > 79 µM (inactive)
• CC1=CC(=O)C(C2CCCCC2)=C/C1=N\OS(=O)(=O)c1cn(C)cn1 = > 79 µM (inactive)
• CC(C)C1=CC(=NOS(=O)(=O)c2ccccc2)C=CC1=O = > 79 µM (inactive)
• CC1=CC(=O)C(C(C)C)=C/C1=N\OS(=O)(=O)c1cn(C)cn1 = > 79 µM (inactive)
• CC1=CC(=O)C(C(C)C)=C/C1=N/OS(=O)(=O)c1cccc(C)c1 = > 79 µM (inactive)
• CC1=CC(=O)C(C(C)(C)C)=C/C1=N\OS(=O)(=O)c1ccccc1Cl = > 79 µM (inactive)
• COc1cccc(S(=O)(=O)O/N=C2\C=C(C(C)(C)C)C(=O)C=C2C)c1 = > 79 µM (inactive)
• COc1cccc(S(=O)(=O)O/N=C2\C=C(C3CCCCC3)C(=O)C=C2C)c1 = > 79 µM (inactive)
• CC1=CC(=O)C(C2CCCCC2)=C/C1=N/OS(=O)(=O)c1cccc(C)c1 = > 79 µM (inactive)
• CC1=CC(=O)C(C(C)C)=C/C1=N\OS(=O)(=O)c1c(Cl)cccc1Cl = > 79 µM (inactive)
• CC1=CC(=O)C(C(C)(C)C)=C/C1=N/OS(=O)(=O)c1cccc(C)c1 = > 79 µM (inactive)
• CC1=CC(=O)C(C(C)(C)C)=C/C1=N\OS(=O)(=O)c1cccc(Cl)c1 = > 79 µM (inactive)
